target: Tyrosine-protein kinase Lck (Homo sapiens); conditions: at 1 µM;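 also: reported Lck percent inhibition is a mean value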

smiles: Cc1ccc(Nc2ccnc(Nc3cccc(C(N)=O)c3)n2)cc1O
unitAbbreviation: %
inhibition: 72.2
//
smiles: NS(=O)(=O)c1ccc(N/N=C2\C(=O)Nc3ccc(Cl)cc32)cc1
unitAbbreviation: %
inhibition: 3.7
//
smiles: Cc1cc(-c2ccccn2)cc(C)c1/C=C/c1cncc(-c2nn[nH]n2)c1
unitAbbreviation: %
inhibition: 12.1
//
smiles: c1ccc(Nc2ncc(-c3ccccc3)o2)cc1
unitAbbreviation: %
inhibition: 10.9
//
smiles: ON=C1CCc2cc(-c3nc(C4CCNCC4)[nH]c3-c3ccncc3)ccc21
unitAbbreviation: %
inhibition: 6.86
//
smiles: COc1cccc(-n2ncc3c(N/N=C/c4ccc(S(C)(=O)=O)cc4)ncnc32)c1
unitAbbreviation: %
inhibition: 73.9

====

This listing pairs molecules with measured inhibition.
target: MAP kinase-activated protein kinase 3 (Homo sapiens); settings: at 1 µM
Description: GSK_PKIS: MAPKAPK3 mean inhibition at 1 uM [Nanosyn]
quantityName: inhibition (%)

molecule: C[C@@H](Oc1cc(-n2cnc3ccc(OC[C@@H](O)CO)cc32)sc1C(N)=O)c1ccccc1Cl
unitAbbreviation: %
experimentalResult: -0.73

molecule: Nc1nccc(-c2c(-c3ccc(F)cc3)nn3cc(C(F)(F)F)ccc23)n1
unitAbbreviation: %
experimentalResult: 19.9

molecule: CCS(=O)(=O)c1ccc(OC)c(Nc2ncc(-c3cccc(OC)c3)o2)c1
unitAbbreviation: %
experimentalResult: 3.53

molecule: CCS(=O)(=O)c1ccc(OC)c(Nc2nccc(N(C)c3ccc4c(C)n[nH]c4c3)n2)c1
unitAbbreviation: %
experimentalResult: 6.4

molecule: Cc1ccc(Nc2ccnc(Nc3cccc(C(N)=O)c3)n2)cc1O
unitAbbreviation: %
experimentalResult: 7.65

molecule: N#Cc1c(NC(=O)c2ccccc2F)sc2c1CCCC2
unitAbbreviation: %
experimentalResult: -1.26

molecule: c1ccc(Cc2nc3ccc(Nc4ncnc5ccccc45)cc3[nH]2)cc1
unitAbbreviation: %
experimentalResult: 4.05

molecule: CN1CCN(C(=O)c2ccc(NC(=O)Nc3ccc(N(C)c4ccnc(Nc5ccc(CS(C)(=O)=O)cc5)n4)cc3)cc2)CC1
unitAbbreviation: %
experimentalResult: 3.23

molecule: ON=C1CCc2cc(-c3nc(C4CCNCC4)[nH]c3-c3ccncc3)ccc21
unitAbbreviation: %
experimentalResult: 26.9

molecule: NS(=O)(=O)c1cccc(Nc2cc(-c3ccc(F)cc3)n[nH]2)c1
unitAbbreviation: %
experimentalResult: 9.68

molecule: Oc1cccc(-c2nc(-c3ccccc3)[nH]c2-c2ccncc2)c1
unitAbbreviation: %
experimentalResult: 25.4

molecule: CCOc1nccc2c1nc(-c1nonc1N)n2CC
unitAbbreviation: %
experimentalResult: 2.96

molecule: O=C1Nc2ccc(-c3cccnc3)cc2C1=Cc1cc(Br)c(O)c(Br)c1
unitAbbreviation: %
experimentalResult: 2.92

molecule: CCn1c(-c2nonc2N)nc2c(C#CC(C)(C)O)nc(OCCNC)cc21
unitAbbreviation: %
experimentalResult: 3.56

molecule: NS(=O)(=O)c1cccc(-c2cc3ccncc3cc2OCc2ccccc2)c1
unitAbbreviation: %
experimentalResult: 3.27

molecule: NC(=O)c1cccc(Nc2nccc(Nc3cccc(F)c3)n2)c1
unitAbbreviation: %
experimentalResult: 1.85

molecule: COC(=O)c1ccc2c(c1)C(=Cc1cc(Br)c(O)c(Br)c1)C(=O)N2
unitAbbreviation: %
experimentalResult: 10.5

molecule: NS(=O)(=O)c1ccc(NC=C2C(=O)Nc3ccc4ncsc4c32)cc1
unitAbbreviation: %
experimentalResult: 5.58

molecule: Cc1cc(O)cc(C)c1/C=C/c1cncc(C(=O)N(C)C)c1
unitAbbreviation: %
experimentalResult: 1.23

molecule: COC(=O)Nc1nc2cc(Oc3ccc(NC(=O)Nc4cccc(Br)c4)cc3)ccc2[nH]1
unitAbbreviation: %
experimentalResult: 6.43

molecule: CN(C)CCCn1c(-c2nonc2N)nc2cnccc21
unitAbbreviation: %
experimentalResult: 4.17

molecule: Cc1cc(Cl)cc2c1NC(=O)C2=NNc1ccc(S(N)(=O)=O)cc1
unitAbbreviation: %
experimentalResult: 2.25

molecule: O=S(=O)(CCOCc1ccc(-c2ccc3ncnc(Nc4ccc(OCc5cccc(F)c5)c(Cl)c4)c3c2)o1)c1ccccc1
unitAbbreviation: %
experimentalResult: 2.16

molecule: CS(=O)(=O)CCNCc1nc(-c2ccc3ncnc(Nc4ccc(OCc5cccc(C(F)(F)F)c5)cc4)c3c2)cs1
unitAbbreviation: %
experimentalResult: 2.67

molecule: CN(C)C(=O)O[C@@H]1CN[C@@H](C#Cc2cc3ncnc(Nc4ccc(OCc5cccc(F)c5)c(Cl)c4)c3s2)C1
unitAbbreviation: %
experimentalResult: 3.12

molecule: NC(=O)c1sc(-n2cnc3ccccc32)cc1OCc1ccccc1Br
unitAbbreviation: %
experimentalResult: 12.7

molecule: Cc1ccc2c(-c3ccnc(Nc4cccc(C(F)(F)F)c4)n3)c(-c3ccccc3)nn2n1
unitAbbreviation: %
experimentalResult: 27.2

molecule: O=C1Nc2ccccc2/C1=C/Nc1ccc2[nH]c(=O)[nH]c2c1
unitAbbreviation: %
experimentalResult: 8.08

molecule: Nc1nccc(-c2c(-c3ccc(F)cc3)ncn2CCCN2CCOCC2)n1
unitAbbreviation: %
experimentalResult: 23.5

molecule: [O-][S+]1CCN(Cc2ccc(-c3ccc4ncnc(Nc5ccc(OCc6ccccc6)c(Cl)c5)c4c3)o2)CC1
unitAbbreviation: %
experimentalResult: 8.71

molecule: CCCN1CCCC(c2ccc(Nc3nc(Nc4cc(F)ccc4C(N)=O)c4cc[nH]c4n3)c(OC)c2)C1 (stereo unspecified)
unitAbbreviation: %
experimentalResult: 17.3

molecule: CC(C)c1ccc2c(c1)NC(=O)/C2=N/Nc1ccc(S(N)(=O)=O)cc1
unitAbbreviation: %
experimentalResult: -1.45

molecule: COc1cc(Nc2nccc(-c3cnn4ncccc34)n2)cc(OC)c1
unitAbbreviation: %
experimentalResult: 0.56

molecule: COc1cccc(-n2nc(C)c3c(N/N=C(\C)c4ccncc4)ncnc32)c1
unitAbbreviation: %
experimentalResult: 0.31

molecule: C[C@@H](Oc1cc(-n2cnc3ccc(OCC4CCN(C)CC4)cc32)sc1C(N)=O)c1ccccc1C(F)(F)F
unitAbbreviation: %
experimentalResult: -1.6

molecule: CC(C)c1ccc(Nc2nccc(-c3cnn4ncccc34)n2)cc1
unitAbbreviation: %
experimentalResult: 6.14

molecule: COc1cccc(-n2ncc3c(N/N=C/c4ccc(C)cc4)ncnc32)c1
unitAbbreviation: %
experimentalResult: -0.87

molecule: Cc1ccc(C(=O)NC2CC2)cc1-c1ccc2[nH]ncc2c1
unitAbbreviation: %
experimentalResult: 18.7

molecule: Nc1ccc(C#Cc2cncnc2Nc2ccc(OCc3cccc(F)c3)c(Cl)c2)cc1
unitAbbreviation: %
experimentalResult: 4.4

molecule: CCn1c(-c2nonc2N)nc2ccc(F)cc21
unitAbbreviation: %
experimentalResult: 5.57

molecule: Cc1ccc(O)cc1Nc1ccnc2ccc(S(C)(=O)=O)cc12
unitAbbreviation: %
experimentalResult: 24.2

====

target: Macrophage colony-stimulating factor 1 receptor (Homo sapiens); conditions: at 1 µM;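 also: mean inhibition of FMS, from the GSK PKIS screening set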
This listing pairs compounds with measured inhibition.
quantityName: inhibition (%)

smiles: Nc1nccc(-c2c(-c3ccc(F)cc3)nn3cc(C(F)(F)F)ccc23)n1
experimentalResult: 7.32
//
smiles: Cc1ccc(NC(=O)CC2CC2)cc1-c1ccc(C(=O)NCC2CC2)cc1
experimentalResult: -0.55
//
smiles: Cc1cc(-c2ccccn2)cc(C)c1/C=C/c1cncc(-c2nn[nH]n2)c1
experimentalResult: 12.3
//
smiles: FC(F)(F)c1ccc(-c2nn3ncccc3c2-c2ccnc(Nc3ccc4c(c3)OCCO4)n2)cc1
experimentalResult: 10.3
//
smiles: O=C(Nc1ccc(Oc2ccc3[nH]c(NC(=O)c4ccco4)nc3c2)cc1)Nc1cc(C(F)(F)F)ccc1F
experimentalResult: 72.8
//
smiles: COc1cc2ncnc(Nc3ccc(C)c(O)c3)c2cc1OC
experimentalResult: 6.14
//
smiles: CCS(=O)(=O)c1ccc(OC)c(Nc2ncc(-c3cccc(OC)c3)o2)c1
experimentalResult: 71.9
//
smiles: Oc1cccc(-c2nc(-c3ccccc3)[nH]c2-c2ccncc2)c1
experimentalResult: 5.02
//
smiles: NS(=O)(=O)c1ccc(-c2cc3ccncc3cc2OCc2ccccc2)cc1
experimentalResult: 1.76
//
smiles: COc1ccc2ncnc(Nc3ccc(OCc4ccccc4)cc3)c2c1
experimentalResult: 3.66
//
smiles: Cc1ccc(O)cc1Nc1ccnc2ccc(S(C)(=O)=O)cc12
experimentalResult: 15.8
//
smiles: NC(=O)c1cccc(Nc2nccc(Nc3cccc(F)c3)n2)c1
experimentalResult: 62.5
//
smiles: NS(=O)(=O)c1ccc(Nc2cc(-c3cccc(O)c3)n[nH]2)cc1
experimentalResult: 15.4
//
smiles: NS(=O)(=O)c1cccc(Nc2cc(-c3ccc(F)cc3)n[nH]2)c1
experimentalResult: 16.6
//
smiles: N#Cc1cccc(Nc2nccc(-c3cnn4ncccc34)n2)c1
experimentalResult: 79.4
//
smiles: c1ccc(Cc2nc3ccc(Nc4ncnc5ccccc45)cc3[nH]2)cc1
experimentalResult: 5.24
//
smiles: OCc1ccc(-c2nc(-c3ccccn3)c(-c3ccc4c(c3)OCO4)[nH]2)cc1
experimentalResult: 4.35
//
smiles: COc1ccc(-c2nn3ncccc3c2-c2ccnc(Nc3cccc(C(F)(F)F)c3)n2)cc1
experimentalResult: 19.4
//
smiles: Nc1nccc(-c2c(-c3ccc(F)cc3)ncn2CCCN2CCOCC2)n1
experimentalResult: 1.51
//
smiles: COC(=O)Nc1nc2cc(Oc3ccc(NC(=O)Nc4cccc(Br)c4)cc3)ccc2[nH]1
experimentalResult: 43.2
//
smiles: CCn1c(-c2nonc2N)nc2ccc(F)cc21
experimentalResult: 0.35
//
smiles: COc1cc2ncnc(Nc3ccc4c(cnn4Cc4ccccc4)c3)c2cc1OC
experimentalResult: 3.16
